Values from patent US20220046923A1

- Test system: Echinochloa crus-galli (ECHCG)
- measurement.protocol: Post-emergence efficacy, glasshouse spray test
- Assay type: in vivo
- assay.conditions: Echinochloa crus-galli, post-emergence, 312 h; application rate 500 g/Ha; evaluated after 13 days; read-out: Control of weed species ECHCG after post-emergence application (100=total damage to plant; 0=no damage to plant)
pest or weed control at 500 g/ha values for the compounds below.
measurement.kind: pest or weed control at 500 g/ha (%)

compound	measurement.kind	experimental.result
O=S(=O)([O-])CC[n+]1ccc2cc(C(F)(F)F)ccc2n1 [Compound A98]	pest or weed control at 500 g/ha	10
CCOP(=O)(O)CC[n+]1ccc2ccccc2n1 [Compound A103]	pest or weed control at 500 g/ha	30
CNC(=O)c1c[n+](CCC(=O)O)nc2ccccc12 [Compound A14]	pest or weed control at 500 g/ha	70
N#Cc1cccc2cc[n+](CCS(=O)(=O)[O-])nc12 [Compound A110]	pest or weed control at 500 g/ha	20
CNC(=O)c1c[n+](CCS(=O)(=O)[O-])nc2ccccc12 [Compound A13]	pest or weed control at 500 g/ha	50
CC(=O)Nc1ccc2cc[n+](CCS(=O)(=O)[O-])nc2c1 [Compound A105]	pest or weed control at 500 g/ha	50
CC(C(=O)OC(C)(C)C)[n+]1ccc2ccccc2n1 (stereo not drawn) [Compound A116]	pest or weed control at 500 g/ha	30
CN(C)C(=O)c1cccc2cc[n+](CCS(=O)(=O)[O-])nc12 [Compound A102]	pest or weed control at 500 g/ha	70
O=S(=O)([O-])CC[n+]1ccc2cc(-c3ccccc3)ccc2n1 [Compound A53]	pest or weed control at 500 g/ha	0

###

- Test system: Amaranthus palmeri (AMAPA)
- measurement.protocol: Post-emergence efficacy, glasshouse spray test
- Format: in vivo
- assay.conditions: Amaranthus palmeri, post-emergence, 312 h; application rate 1000 g/Ha; evaluated after 13 days; read-out: Control of weed species AMAPA after post-emergence application (100=total damage to plant; 0=no damage to plant)
pest or weed control at 1000 g/ha values for the compounds below.

compound	pest or weed control at 1000 g/ha (%)
O=S(=O)([O-])CC[n+]1ccc2cccc(C(F)(F)F)c2n1	40
O=S(=O)(O)CC[n+]1ccc2ccc(-c3ccccc3)cc2n1	20
O=S(=O)([O-])CC[n+]1ccc2cccc(F)c2n1	100
O=S(=O)(O)CC[n+]1ccc2cccc(I)c2n1 [Compound A42, 2,2,2-trifluoroacetate]	90
O=C([O-])C[n+]1ccc2ccccc2n1 [Compound A2, 2-cinnolin-2-ium-2-ylacetate]	100
CS(=O)(=O)NC(=O)C[n+]1ccc2ccccc2n1	90
O=S(=O)([O-])OC[n+]1ccc2ccccc2n1	30
CN(C)S(=O)(=O)[N-]C(=O)C[n+]1ccc2ccccc2n1	10
Cc1c[n+](CC(=O)O)nc2ccccc12	20
O=P(O)(O)C[n+]1ccc2ccccc2n1	10
O=S(=O)([O-])CCC[n+]1cc(C(Cl)Cl)c2ccccc2n1	10
O=C(O)c1ccc(C[n+]2ccc3ccccc3n2)cc1	20
COC(=O)C[n+]1cc(C)c2cccc(C)c2n1	30
O=S(=O)([O-])N1CCC[C@H]1C[n+]1ccc2ccccc2n1	100
Cc1ccc2n[n+](CC(=O)[O-])cc(C)c2c1	30
COC(=O)C[n+]1cc(C)c2cc(C)cc(C)c2n1	20
CONC(=O)C[n+]1cc(C)c2cc(C)cc(C)c2n1	30
O=S(=O)([O-])CC(O)C[n+]1ccc2ccccc2n1 (stereo not shown)	90
O=S(=O)(O)OCC[n+]1nc2ccccc2cc1Cl	0
COC(=O)c1cccc(C[n+]2ccc3ccccc3n2)c1	20
Cc1c[n+](CCC(=O)O)nc2ccccc12	70
CC#Cc1c[n+](CCOS(=O)(=O)[O-])nc2ccccc12	30
O=C([O-])C[C@H](O)C[n+]1ccc2ccccc2n1	0
Cc1c[n+](CC(=O)[O-])nc2c(C)cccc12	50
OCC[n+]1ccc2ccccc2n1	90
OCCC[n+]1ccc2ccccc2n1	30
O=S(=O)([O-])CC[n+]1ccc2cccc(Cl)c2n1	70
O=S(=O)([O-])CC[n+]1ccc2ccc(F)cc2n1	100
COc1cccc2cc[n+](CCS(=O)(=O)[O-])nc12	100
Cc1ccc2cc[n+](CCS(=O)(=O)[O-])nc2c1	100
O=S(=O)([O-])C[n+]1ccc2ccccc2n1 [Compound A48, cinnolin-2-ium-2-ylmethanesulfonate]	100
O=S(=O)([O-])NCC[n+]1ccc2ccccc2n1	100
O=S(=O)([O-])OCC[n+]1ccc2ccccc2n1	100
c1ccc2n[n+](Cc3nnn[n-]3)ccc2c1	30
O=S(=O)([O-])CC[n+]1cc(-c2ccccc2)c2ccccc2n1	90
O=S(=O)([O-])CCC[n+]1ccc2ccccc2n1	100
COC(=O)C[n+]1ccc2ccccc2n1	100
Cc1ccc2n[n+](CCS(=O)(=O)[O-])ccc2c1	90
COc1ccc2n[n+](CCS(=O)(=O)[O-])ccc2c1	0
COc1ccc2cc[n+](CCS(=O)(=O)[O-])nc2c1	100
